- system_under_test: human PD-L1/His fusion protein (human, UniProt Q9NZQ7 19-239)
- Sequence (Q9NZQ7 19-239 limits assumed): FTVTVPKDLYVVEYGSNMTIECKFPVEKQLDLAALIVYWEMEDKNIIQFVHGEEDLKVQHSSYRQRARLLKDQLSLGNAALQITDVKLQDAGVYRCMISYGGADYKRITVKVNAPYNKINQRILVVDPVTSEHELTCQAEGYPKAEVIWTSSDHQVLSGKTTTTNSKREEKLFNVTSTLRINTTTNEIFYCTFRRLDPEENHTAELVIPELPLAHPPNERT
- test_method_notes: BLI Octet RED96, antibody on AHC sensor, single conc. PD-L1/His; test group 2
- Procedure: Briefly, antibodies were characterized for affinities and binding kinetics by Octet®RED96 biolayer interferometry (Pall ForteBio LLC). Antibodies were captured by Anti-hIgG Fc Capture (AHC) Biosensors (Pall) at a concentration of 100 nM for 30 seconds. Sensors were then dipped into running buffer (1×pH 7.2 PBS, 0.05% Tween 20, 0.1% BSA) for 60 seconds to check baseline. Binding was measured by dipping sensors into a single concentration of recombinant human PD-L1/His fusion protein (Novoprotein). […]
measure: koff (s⁻¹)
Answers are plain numbers, in s⁻¹.

>>> experimental_value("HuEM0005-90-8 (antibody, human IgG1, V domains shown) VH: EVQLVQSGAEVKKPGASVKVSCKTSGYTFTSHSINWVRQATGQGLEWIGYMYIGNGYTEYNEKFKGRATLTSNTSISTAYMELSSLRSEDTAVYYCAKITPVVAPYVMDYWGQGTSVTVSS VL: DIQMTQSPSFLSASVGDRVTITCKASQDVGTAVAWYQQKPGKAPKLLIYWASTRHTGVPSRFSGSGSGTEFTLTISSLQPEDFATYYCQQYSSYPYTFGQGTKLEIK")
0.000349
>>> experimental_value("HuEM0005-87-11 (antibody, human IgG1, V domains shown, also called HuEM0005-87-l l) VH: EVQLVQSGAEVKKPGASVKVSCKASGYTFTDYYINWVRQAPGQGLEWMGETIPNTGGTTYNQKFKARVTMTVDTSTSTVYMELSSLRSEDTAVYYCARYQSGSPFAYWGQGTTVTVSS VL: EIVMTQSPATLSVSPGERATLSCKASQNVGTAVAWYQQKPGQAPRLLIYSASNRYTGVPARFSGSGSGTEFTLTISSLQSEDFAVYYCQQHYSTPYTFGGGTKLEIK")
0.000769

Qu. For the binder HuEM0005-87-8 (antibody, human IgG1, V domains shown) VH: EVQLVQSGAEVKKPGASVKVSCKASGYTFTDYYINWVRQAPGQGLEWIGETIPNTGGTTYNQKFKARVTLTVDKSTSTVYMELSSLRSEDTAVYYCARYQSGSPFAYWGQGTTVTVSS VL: EIVMTQSPATLSVSPGERATLSCKASQNVGTAVAWYQQKPGQAPRLLIYSASNRYTGIPARFSGSGSGTEFTLTISSLQSEDFAVYYCQQHYSTPYTFGGGTKLEIK , what koff is on record?
Ans. 0.000844
